- System tested: Streptavidin (Streptomyces avidinii)
- Experiment notes: compounds binding control protein streptavidin – biophysical, small-molecule microarray, 635/667 nm fluorescence, artefact control for SMM compound annotation, primary screen (AID 1147);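 further: signal reflects streptavidin binding to arrayed compounds as a control protein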
- Run conditions: higher = more signal
I'd be grateful if you could share measured composite z-score for these entries.

"C=CC[C@@]1(C(=O)N(C)C)N=C(c2ccc(OCCCO)cc2)O[C@@H]1c1ccccc1CN=[N+]=[N-]" yielded composite z-score of 1.35

"O=C1N(CCS(=O)(=O)c2ccccc2)c2ccccc2C[C@]12N=C(c1ccc(OCCCO)cc1)O[C@@H]2c1ccccc1" yielded composite z-score of 0.404

"CCCCC(=C=CC[C@H](O)c1ccc(CO)o1)CCO" yielded composite z-score of -0.144

O=C1NC(=O)C2C1C=CC(C(O)c1ccc([N+](=O)[O-])cc1)N2Nc1ccccn1 (configuration not stated) yielded composite z-score of -0.115

"Cc1ccc(S[C@]2(C(=O)NCC(F)(F)F)CC(=O)N(Cc3ccccc3C(F)(F)F)[C@@H]2c2ccc(CO)cc2)cc1" yielded composite z-score of -1

"C=CCNC(=O)[C@H]1[C@@H]2C(=O)O[C@@H](c3ccccc3)[C@@H](c3ccccc3)N2[C@@H](c2ccccc2OCCO)[C@]12C(=O)N(C(=O)OCCOC)c1ccc(C#Cc3ccc(OC)cc3)cc12" yielded composite z-score of 0.12

"[N-]=[N+]=Nc1ccccc1C[C@@]1(C(=O)NCc2ccccc2)N=C(c2ccc(OCCCO)cc2)O[C@@H]1c1ccccc1N=[N+]=[N-]" yielded composite z-score of 0.905
